- Target system: D(2) dopamine receptor (Homo sapiens)
- Sequence (P14416 whole entry): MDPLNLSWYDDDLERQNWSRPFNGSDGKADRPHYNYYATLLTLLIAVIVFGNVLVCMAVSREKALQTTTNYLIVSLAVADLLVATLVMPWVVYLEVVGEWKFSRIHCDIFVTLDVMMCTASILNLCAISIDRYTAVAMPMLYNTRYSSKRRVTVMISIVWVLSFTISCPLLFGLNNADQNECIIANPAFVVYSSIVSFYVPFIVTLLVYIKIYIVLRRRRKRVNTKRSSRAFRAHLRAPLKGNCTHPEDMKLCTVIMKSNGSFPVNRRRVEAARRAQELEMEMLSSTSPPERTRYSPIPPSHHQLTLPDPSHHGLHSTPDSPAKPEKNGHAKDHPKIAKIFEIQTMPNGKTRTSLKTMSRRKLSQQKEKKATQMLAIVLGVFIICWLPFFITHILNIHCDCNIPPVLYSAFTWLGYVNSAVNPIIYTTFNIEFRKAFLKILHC
- Test summary: Binding affinity to cloned human dopamine D2 receptor
Outcome measure: Ki
Express the reported value numerically, then name its unit.

Examples from the recorded data:
| Smiles entry | Observed value |
| --- | --- |
| Cc1cccn(CCCCN2CCN(c3cc(C(F)(F)F)nc(C(C)(C)C)n3)CC2)c1=O | 171 nM |
| Cc1cccc(=O)n1CCCCN1CCN(c2cc(C(F)(F)F)nc(C(C)(C)C)n2)CC1 | 195 nM |
| CC(C)(C)c1nc(N2CCN(CCCCCC(=O)NCc3ccccc3)CC2)cc(C(F)(F)F)n1 | 174 nM |

In plain terms, CC(C)(C)NC(=O)NCCCCN1CCN(c2cc(C(F)(F)F)nc(C(C)(C)C)n2)CC1 has a documented Ki of 65.8 nM

In plain terms, CC(C)(C)c1nc(N2CCN(CCCCNC(=O)CCc3ccccc3)CC2)cc(C(F)(F)F)n1 has a documented Ki of 244 nM

In plain terms, CC(C)(C)c1nc(N2CCN(CCCCn3cc(Cl)ccc3=O)CC2)cc(C(F)(F)F)n1 has a documented Ki of 128 nM

* * *

- Test summary: Oral bioavailability in rat at 2 mg/kg, iv and 10 mg/kg, po
- Assay type: ADME, organism-based
- Details: in vivo
Outcome measure: bioavailability (%)
Please reply with the bare figure in % and do not write the unit itself.

In plain terms, Cc1ccn(CCCCN2CCN(c3cc(C(F)(F)F)nc(C(C)(C)C)n3)CC2)c(=O)c1 has a documented bioavailability of 37

* * *

- Target system: D(3) dopamine receptor (Homo sapiens, UniProt P35462)
- Sequence (P35462 whole entry): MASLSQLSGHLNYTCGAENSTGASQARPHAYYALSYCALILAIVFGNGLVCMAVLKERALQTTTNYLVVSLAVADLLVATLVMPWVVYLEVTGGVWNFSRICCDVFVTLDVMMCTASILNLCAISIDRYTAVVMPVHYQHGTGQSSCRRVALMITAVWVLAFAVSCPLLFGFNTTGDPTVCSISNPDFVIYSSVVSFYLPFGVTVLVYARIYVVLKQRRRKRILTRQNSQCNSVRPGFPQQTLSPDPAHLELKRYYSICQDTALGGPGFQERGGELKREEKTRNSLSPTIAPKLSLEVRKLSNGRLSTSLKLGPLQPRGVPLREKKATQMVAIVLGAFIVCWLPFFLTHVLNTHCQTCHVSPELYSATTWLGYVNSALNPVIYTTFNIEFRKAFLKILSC
Reported Ki values are given for each entry in this list.
Express the reported value numerically, then name its unit.

| Smiles entry | Ki |
| --- | --- |
| CC(C)(C)c1nc(N2CCN(CCCCn3ccc(O)cc3=O)CC2)cc(C(F)(F)F)n1 | 1.1 nM |
| CC(C)(C)c1nc(N2CCN(CCCCNC(=O)NCCc3ccccc3)CC2)cc(C(F)(F)F)n1 | 7.2 nM |
| CC(C)(C)c1nc(N2CCN(CCCCNC(=O)NCC3CCCCC3)CC2)cc(C(F)(F)F)n1 | 6.7 nM |
| CC(C)(C)c1nc(N2CCN(CCCCNC(=O)Nc3ccccc3)CC2)cc(C(F)(F)F)n1 | 3.2 nM |

For CC(C)(C)c1nc(N2CCN(CCCCNC(=O)CCc3ccccc3)CC2)cc(C(F)(F)F)n1 on D(3) dopamine receptor (Homo sapiens, UniProt P35462), measured Ki was 1.6 nM

* * *

- Test summary: Permeability across Caco-2 cell membrane at pH 7.2
- Assay type: ADME, cell-based
- Details: human, Caco-2, pH 7.2; read-out: permeability
Outcome measure: Papp

In plain terms, Cc1ccn(CCCCN2CCN(c3cc(C(F)(F)F)nc(C(C)(C)C)n3)CC2)c(=O)c1 has a documented Papp of 5 ×10⁻⁶ cm/s

* * *

- Target system: D(3) dopamine receptor (Homo sapiens)
Threshold 6 nM. Ki below it: Y. Ki at it or above: N.

| Smiles entry | Assigned label |
| --- | --- |
| CC(C)(C)c1nc(N2CCN(CCCCCC(=O)NCc3ccccc3)CC2)cc(C(F)(F)F)n1 | N |
| CC(C)(C)c1nc(N2CCN(CCCCNC(=O)NCc3ccccc3)CC2)cc(C(F)(F)F)n1 | Y |
| CC(C)(C)c1nc(N2CCN(CCCCn3cc(C(F)(F)F)ccc3=O)CC2)cc(C(F)(F)F)n1 | N |
| CC(C)(C)CNC(=O)NCCCCN1CCN(c2cc(C(F)(F)F)nc(C(C)(C)C)n2)CC1 | Y |

Does this compound meet the criterion Ki < 6 nM? CC(C)(C)c1nc(N2CCN(CCCCn3cc(Cl)ccc3=O)CC2)cc(C(F)(F)F)n1
N
